system: HL-60; assay: NCI tumour cell line growth inhibition, 48 h
The source made the active and inactive calls. Rule as the data show it: active = GI50 up to about 1.1 µM and inactive = higher.
Classes used: active, inactive

{"columns": ["molecule", "classification"],
 "data": [
  ["Nc1nc(Nc2ccccc2)sc1C(=O)c1ccc(Cl)cc1", "inactive"],
  ["Sc1nnc(COc2ccc(Cl)cc2)n1-c1ccccc1", "inactive"],
  ["CC(=O)c1ccc(Nc2c3ccccc3nc3occc23)cc1", "active"],
  ["CCCCCC/C=C1\\CCC(CN2CCOCC2)C1=O (stereo not given)", "inactive"],
  ["CN(C)C(=S)C(Cl)(c1ccccc1)c1ccccc1", "inactive"],
  ["COC1CCC(=C2C(=O)OC(C)(C)OC2=O)N1 (stereo not given)", "inactive"],
  ["COc1cc(S(=O)(=O)Nc2ccc(-c3csc(N4C(=O)CSC4c4cccc(Oc5ccccc5)c4)n3)cc2)ccc1Cl (stereo not given)", "inactive"],
  ["CCC(C)CN1C(=O)NC(C)(Cc2ccccc2)C1=O (stereo not given)", "inactive"],
  ["CNC(=S)N/N=C(\\C)c1cc(OC)c(OC)cc1O", "active"],
  ["Nc1nc2[nH]cnc2c(=O)[nH]1", "inactive"],
  ["CN1c2ccccc2NC(CC(=O)O)C2CC=CN21 (stereo not given)", "inactive"],
  ["Cn1cnc([N+](=O)[O-])c1Sc1nc2ccccc2o1", "inactive"],
  ["CCNc1nnc(-c2nsc3ccccc23)s1", "inactive"],
  ["N#Cc1nc(-c2cnccn2)oc1N", "inactive"],
  ["O=C(CCc1cc(-c2ccco2)n(-c2ccc([N+](=O)[O-])cc2[N+](=O)[O-])n1)Nc1ccccc1", "inactive"],
  ["Cc1c(C(=O)/C=C/C=C/c2ccccc2)[n+]([O-])c2ccccc2[n+]1[O-]", "inactive"],
  ["Nc1nc2c3nc(Nc4ccccc4)sc3nc(=S)n2c2sc(Nc3ccccc3)nc12", "inactive"],
  ["C=C(Br)C/N=C/N(C)C", "inactive"],
  ["O=S(=O)(Nc1ccccc1S(=O)(=O)c1ccccc1)c1ccccc1", "inactive"],
  ["CCn1c(=O)c2nc(SC)sc2n(-c2ccccc2)c1=S", "inactive"],
  ["COc1ccccc1N=C(S)Nc1ccccn1", "inactive"],
  ["CCCCC1(NN=C2CCCCC2)C(=O)N(c2ccccc2)N(c2ccccc2)C1=O", "inactive"],
  ["CCN(CC)c1ccc(Cl)c2c1C(O)(C(C)C)C2(C)C (stereo not given)", "inactive"],
  ["O=[N+]([O-])c1nccn1COCCO", "inactive"],
  ["COc1ccc(/C(Cl)=C(\\C=O)c2ccc([N+](=O)[O-])cc2)cc1", "inactive"],
  ["O=C1CS(=O)(=O)C(c2cccc(Oc3ccccc3)c2)N1c1ccc(Cl)cc1 (stereo not given)", "inactive"],
  ["CN(O)C(=S)c1ccccc1", "active"],
  ["CCCCCCCC/C=C\\CCCCCCCCCCCC(=O)O", "inactive"],
  ["CCCSc1ccc2[nH]c(N3C(=O)/C(=C/c4ccco4)N=C3c3ccccc3)cc2c1", "inactive"],
  ["O=C1C(/C=C/c2ccc(Cl)cc2)=NNC2N1N=C1NC(=O)C3(NN12)c1ccccc1-c1ccccc13 (stereo not given)", "inactive"],
  ["COc1cc(C2C3C=CC=C4CC=CC(=C43)C3CCC(=O)N32)cc(OC)c1OC (stereo not given)", "inactive"],
  ["COc1ccc(-c2nc(SCC(=O)N/N=C/c3ccc([N+](=O)[O-])cc3)[nH]c2-c2ccc(OC)cc2)cc1", "inactive"],
  ["CCOC(=O)CCSS(=O)(=O)c1ccccc1", "inactive"],
  ["CCCC(=O)OC[n+]1ccc(-c2c(COC(=O)NC(C)C)c(COC(=O)NC(C)C)c3n2CCC3)cc1", "inactive"],
  ["CC1=NN(C(=O)c2ccc([N+](=O)[O-])cc2)C(=O)C1/N=N/c1ccccc1C(=O)O (stereo not given)", "inactive"],
  ["COc1ccc2nc(-c3ccc(OC(=O)N(C)C)cc3)cn2c1", "inactive"],
  ["CC1C2(C)OC(=N)C(C#N)(C(c3cccc([N+](=O)[O-])c3)O2)C1(C#N)C#N (stereo not given)", "inactive"],
  ["CCN(CC)C(=S)SC [METHYLDIETHYL CARBAMODITHIOATE]", "inactive"],
  ["OCc1cn(Cc2ccccc2)c2ccccc12", "inactive"],
  ["COC(=O)CCC(=O)Nc1cccc(C(F)(F)F)c1", "inactive"],
  ["CCCCCCCC(=O)NS(=O)(=O)c1ccccc1", "inactive"],
  ["Cc1nc(-n2nc(-c3ccccc3)cc2-c2ccccc2)sc1C(/C=C/c1ccc([N+](=O)[O-])cc1)=N/NC(N)=S", "inactive"],
  ["CN1C(=O)c2ccccc2OC12C=Cc1ccc(O)cc1O2 (stereo not given)", "inactive"],
  ["CC(C)(C)N(Cc1ccccc1)C(=O)/C=C\\[S+]([O-])c1ccccc1 (stereo not given)", "inactive"],
  ["C1=Cc2nccc3cc4c(c(c23)N1)OCO4", "inactive"]
]}
